Values compiled from patent US20240293512A1.

# study_system: T1, human GIP receptor (human, UniProt P48546 22-466)
# T1 sequence (looked up): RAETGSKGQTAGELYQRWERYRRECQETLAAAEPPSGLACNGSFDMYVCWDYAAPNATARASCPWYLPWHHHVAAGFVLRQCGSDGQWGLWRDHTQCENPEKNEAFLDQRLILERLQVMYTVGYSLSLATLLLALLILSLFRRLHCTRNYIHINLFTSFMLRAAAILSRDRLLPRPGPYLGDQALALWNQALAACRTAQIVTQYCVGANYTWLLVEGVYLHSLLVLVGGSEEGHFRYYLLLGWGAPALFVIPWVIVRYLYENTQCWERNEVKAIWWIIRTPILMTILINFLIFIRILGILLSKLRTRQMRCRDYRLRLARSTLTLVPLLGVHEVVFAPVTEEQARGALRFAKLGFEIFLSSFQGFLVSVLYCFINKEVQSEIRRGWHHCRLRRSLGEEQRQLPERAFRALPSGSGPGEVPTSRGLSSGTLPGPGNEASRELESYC
# protocol_text: cell-based or functional assay
Bridge positions count the residues as written; N and C are the ends. Square brackets hold non-standard residues; d marks the D form. Ends that are not written are not given here. * marks the point of attachment. Acetyl(2-(4-imidazolyl)) = O=C(Cc1c[nH]cn1)*; Aib = CC(C)(N)C(=O)O
Label rule, in plain words: In vitro activity compared with native peptide (%) vs GIP (cAMP EC50) of 8% and up is YES, under 8% is NO.

For this binder, is measured In vitro activity compared with native peptide (%) vs GIP (cAMP EC50) 8% or higher? {Acetyl(2-(4-imidazolyl))}-[Aib]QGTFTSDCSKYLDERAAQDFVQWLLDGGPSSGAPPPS [triple agonist of SEQ ID NO: 63] NO

Is In vitro activity compared with native peptide (%) vs GIP (cAMP EC50) for Y[Aib]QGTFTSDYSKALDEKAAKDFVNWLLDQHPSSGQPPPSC (bridge 16-20) [triple agonist of SEQ ID NO: 102] at or above 8%? YES

Has HGQGTFTSDCSKYMDGQAAQDFVAWLLAGGPSSGAPPPS [triple agonist of SEQ ID NO: 45] a recorded In vitro activity compared with native peptide (%) vs GIP (cAMP EC50) greater than or equal to 8%? NO

Form field: In vitro activity compared with native peptide (%) vs GIP (cAMP EC50) at least 8%? Entry: [Acetyl(2-(4-imidazolyl))][Aib]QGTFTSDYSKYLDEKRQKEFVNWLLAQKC (bridge 16-20) [triple agonist of SEQ ID NO: 93] NO

Kindly determine if In vitro activity compared with native peptide (%) vs GIP (cAMP EC50) recorded for H[Aib]QGTFTSDVSKYLDGQAAQEFVAWLLKGC [triple agonist of SEQ ID NO: 8] is above or exactly 8%. NO

Assess whether reported In vitro activity compared with native peptide (%) vs GIP (cAMP EC50) for Y[Aib]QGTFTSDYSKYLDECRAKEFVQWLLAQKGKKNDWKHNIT (bridge 16-20) [triple agonist of SEQ ID NO: 23] sits at 8% or higher. NO

API: above_or_equal(metric=In vitro activity compared with native peptide (%) vs GIP (cAMP EC50), cutoff=8%) for item [Acetyl(2-(4-imidazolyl))][Aib]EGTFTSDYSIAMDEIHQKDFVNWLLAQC (bridge 16-20) [triple agonist of SEQ ID NO: 83] NO

Check the entry Y[Aib]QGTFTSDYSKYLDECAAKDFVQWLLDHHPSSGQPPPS (bridge (positions not given here); ends not checked; also: ring formation between two underlined residues) [triple agonist of SEQ ID NO: 67] : does In vitro activity compared with native peptide (%) vs GIP (cAMP EC50) equal or exceed 8%? YES

Decide: In vitro activity compared with native peptide (%) vs GIP (cAMP EC50) of H[Aib]QGTFTSDVSSYLLGQQQKEFIAWLVKGGGPSSGAPPPSC [triple agonist of SEQ ID NO: 5] >= 8%? NO
